Exercise: for every item that follows, state its recorded LD50.
method: Acute toxicity in the intraperitoneal administration to BDF1 mice
conditions: mouse, in vivo, ip
Give bare numbers, in mg/kg.

smilesStr	LD50 / mg/kg
CC(=O)N[C@@H]1[C@@H](O)[C@H](O)[C@@H](CO)O[C@H]1NC(=O)N(CCCl)N=O	20

Now let's try a different one.
Enquiry: Respond only with LD50 recorded for CC(=O)N[C@@H]1[C@@H](OC(C)=O)[C@H](OC(C)=O)[C@@H](COC(C)=O)O[C@H]1NC(=O)N(CCCl)N=O
Return: 25
